I'd be grateful if you could share measured composite z-score for these entries.
# MEASUREMENT_NOTES: binders of probe aHhip on microarray, primary screen, stem cell growth factor project, biochemical, small-molecule microarray, fluorescence 635/667 (AID 1087);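 note: score merges spot fluorescence at 667nm with spot signal to noise ratio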
# SETUP_CONDITIONS: higher = more signal
One number for each entry.

These recorded examples may help you get a feel for the data.
MOLECULE: CC(=O)n1cc(C(O)C2C=CC3C(=O)N(c4ccccc4)C(=O)C3N2Nc2ccccc2)c2ccccc21 (centres undefined)
NUMBER: -0.0702
//
MOLECULE: Cc1ccc(S[C@]2(C(=O)NCCN3CCOCC3)CC(=O)N(Cc3ccccc3C(F)(F)F)[C@@H]2c2ccc(CO)cc2I)cc1
NUMBER: -0.236

For each entry beneath this line, provide reported composite z-score.
1. C[C@]1(C(=O)NC2CC2)c2ccccc2C(=O)N(Cc2ccc(OC(F)(F)F)cc2)[C@H]1c1ccc(CO)cc1
2. C=CC[C@@]12N=C(c3ccc(OCCCO)cc3)O[C@@H]1c1ccccc1N(CCS(=O)(=O)c1ccccc1)C2=O
3. COc1cc2c(cc1OC)CN(C(=O)[C@@H]1[C@H]3C(=O)O[C@H](c4ccccc4)[C@H](c4ccccc4)N3[C@H](c3ccccc3OCCO)[C@@]13C(=O)Nc1ccc(C#CC4(O)CCCCCC4)cc13)CC2
4. CC=CC(O)C1C=CC2C(=O)N(c3ccccc3)C(=O)C2N1Nc1ccccc1 (centres undefined)
5. O=C(N1CCCCC1)[C@@]1(Cc2ccccc2)COC(c2ccc(OCCCO)cc2)=N1
6. CN(C)CCCCNC(=O)[C@H]1C[C@H]2C(=O)N[C@@H](CCCCN(C)C)C(=O)N2[C@H]1c1cccc(OCCO)c1
7. [N-]=[N+]=Nc1ccccc1[C@@H]1OC(c2ccc(OCCCO)cc2)=N[C@]1(CCS(=O)(=O)c1ccccc1)C(=O)NCCN1CCOCC1

RESULT:
[-0.111, -0.0391, -0.123, -0.0852, 0.347, -0.381, 0.417]
